This collection of values is drawn from patent US20190241662A1.

Reported Kd values for the following binders.
Molecular target: T1, recombinant human CTLA4 protein (construct not stated) (human, UniProt P16410 36-162, limits assumed)
T1 construct: also called biotinylated human CTLA4; human recombinant CTLA4 proteins
T1 sequence (looked up): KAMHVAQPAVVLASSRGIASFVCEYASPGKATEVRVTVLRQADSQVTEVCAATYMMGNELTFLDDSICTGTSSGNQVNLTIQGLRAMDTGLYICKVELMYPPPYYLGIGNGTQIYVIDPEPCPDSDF
Assay: SPR (Biacore T200), IgG captured by anti-human Fc

- binder: "TY21692 (antibody, V domains shown, human IgG1 (hIgG1) from Fab hit B16083) VH: EVQLVESGGGLVQPGGSLRLSCAASGYSITSGHYWSWIRQAPGKGLEWIGDISHSGSTYYSQSLKSRVTISRDNSKNTLYLQLNSLRAEDTAVYYCARGSRTGYFDYWGQGTLVTVSS VL: DIQLTQSPSSLSASVGDRVTITCRASQSISSYLNWYQQKPGKAPKLLIYDASNLETGVPSRFSGSGSGTDFTLTISSLQPEDFATYYCQHHYGTPLTFGQGTKVEIKR"
  readoutUnits: "nM"
  Kd: 3.95
- binder: "TY21591 (antibody, V domains shown, human IgG1 (hIgG1) from Fab hit B15756) VH: EVQLVESGGGLVQPGGSLRLSCAASGFSLSTGGVAVSWIRQAPGKGLEWIGEIYHSGSTYYSPSLKSRVTISRDNSKNTLYLQLNSLRAEDTAVYYCARRIATATYFDYWGQGTLVTVSS VL: DIQLTQSPSSLSASVGDRVTITCRASQTVFSRYLAWYQQKPGKAPKLLIYDASNRATGIPSRFSGSGSGTDFTLTISSLQPEDFATYYCQQSYYWPPWTFGQGTKVEIK"
  readoutUnits: "nM"
  Kd: 9.68
- binder: "TY21691 (antibody, V domains shown, human IgG1 (hIgG1) from Fab hit B15736) VH: EVQLVESGGGLVQPGGSLRLSCAASGFTFSDYAIHWVRQAPGKGLEWIGIISPSGGSTKYAQKFQGRVTISRDNSKNTLYLQLNSLRAEDTAVYYCARLGYGYFDVWGQGTLVTVSS VL: DIQLTQSPSSLSASVGDRVTITCRASQSVDFYGISFLHWYQQKPGKAPKLLIYDASSLESGVPSRFSGSGSGTDFTLTISSLQPEDFATYYCVQALQLPLTFGQGTKVEIK"
  readoutUnits: "nM"
  Kd: 2.08
- binder: "TY21687 (antibody, V domains shown, human IgG1 (hIgG1) from Fab hit B15700) VH: EVQLVESGGGLVQPGGSLRLSCAASGFTFSGYAIHWVRQAPGKGLEWIGIISPSGGGTKYAQKFQGRVTISRDNSKNTLYLQLNSLRAEDTAVYYCARHPFAYWGQGTLVTVSS VL: DIQLTQSPSSLSASVGDRVTITCRASQSVDFYGISFLDWYQQKPGKAPKLLIYDASNRATGIPSRFSGSGSGTDFTLTISSLQPEDFATYYCQQYVSSPPEYTFGQGTKVEIK"
  readoutUnits: "nM"
  Kd: 1.82
- binder: "TY21585 (antibody, V domains shown, human IgG1 (hIgG1) from Fab hit B15709) VH: EVQLVESGGGLVQPGGSLRLSCAASGFTFSDYAIHWVRQAPGKGLEWIGIISPSSGSTNYAQKFQGRVTISRDNSKNTLYLQLNSLRAEDTAVYYCARDIHSGSSGYYYGFDVWGQGTLVTVSS VL: DIQLTQSPSSLSASVGDRVTITCRASESVDFFGISFLAWYQQKPGKAPKLLIYDASNRATGIPSRFSGSGSGTDFTLTISSLQPEDFATYYCQHYTSSPPVYTFGQGTKVEIK"
  readoutUnits: "nM"
  Kd: 8.15
